Could you please report measured %Inh for the items listed next?
system: NEK3; conditions: concentration: 1 μM, replicates: in singlicate; n = 1;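 note: KINOMEscan kinase panel screen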
Kindly provide the numeric value in % only, without the unit symbol.

Query COc1cc(Nc2nccc(N3CCC(NC(=O)Nc4cc(C)ccc4C)C3)n2)cc(OC)c1OC (centres unmarked) yields %Inh of 9

For record COc1ccc(Nc2nccc(NCCNC(=O)Nc3ccccc3F)n2)cc1 the listed %Inh is 19

Lab book: %Inh of Cc1nnc(-c2ccc3occ(-c4ccc(S(C)=O)cc4)c3c2)[nH]1 (centres unmarked) noted as 11

Quick note, %Inh for O=C(Nc1n[nH]c2cc(-c3cccc(F)c3F)ccc12)C1CC1 landed at 39

Sample Fc1cc(Cl)ccc1Nc1ccnc2cc(-c3ccc(CN4CCCCC4)o3)ccc12 ; %Inh observed: 0
